Assay: Primary qHTS for small molecule stabilizers of the endoplasmic reticulum resident proteome: Secreted ER Calcium Modulated Protein (SERCaMP) assay (AID 1508630); note: % is set by controls: 0 for no effect and ±100 for the full control effect
Conditions: SH-SY5Y GLuc-SERCaMP (Gaussia luciferase released on ER calcium loss) secretion, thapsigargin, luminescence; series mostly up to 38.4 µM
Inconclusive results are not listed. The source made the active and inactive calls. Calls come from the whole dose curve; as a rule, active = well fitted inhibition curve with a large enough effect; inconclusive = small, poorly fitted or top-dose-only effect; inactive = no such curve, though single readings can be large or run the other way.
reported endpoint: outcome

INSERT INTO assay_data (chem_smiles, result) VALUES
  ('CN(C)CCc1c[nH]c2ccccc12', 'inactive'),
  ('CCOC(=O)NC(C)(C)Cc1ccc(Cl)cc1', 'inactive'),
  ('C[C@@H]1CC[C@H]2[C@@H](C)C(=O)O[C@@H]3O[C@@]4(C)CC[C@@H]1[C@]32OO4', 'inactive');

###

Tested on: WaGa
Assay: qHTS assay to identify novel small-molecules to repurpose for Merkel cell carcinoma treatment (AID 1296009); note: % is set by controls: 0 for no effect and ±100 for the full control effect; nearly all actives have a fitted effect of over 60% in size
Details: MCC and control cell lines, CellTiter-Glo viability, 72 h; series mostly up to 46 µM
From the text: MCC is a rare and aggressive neuroendocrine skin cancer with limited treatment options. Approximately 80% of MCCs have the Merkel cell polyomavirus (MCPyV) DNA integrated into the host genome (virus-positive: VP-MCC) and viral oncogenes drive oncogenesis. The remaining MCCs are virus-negative (VN-MCC) and are caused by UV mutagenesis. […] Using cell viability as a readout (CellTiter-Glo assay) we found both overlapping and distinct drugs that can be repurposed for the treatment of VP-MCC and VN-MCC. […]
Results filed as inconclusive are left out. Calls of active or inactive are those of the source. Calls come from the whole dose curve; as a rule, active = well fitted inhibition curve with a large enough effect; inconclusive = small, poorly fitted or top-dose-only effect; inactive = flat fitted curve, though single readings scatter.
reported endpoint: outcome

INSERT INTO measurements (chem_smiles, tested_on, result) VALUES
  ('COc1cc(CC#N)cc(OC)c1OC', 'WaGa', 'inactive'),
  ('CCc1cc(OC)c(C[C@H](C)N)cc1OC', 'WaGa', 'inactive'),
  ('O=c1n(Cl)c(=O)n(Cl)c(=O)n1Cl', 'WaGa', 'inactive');

###

Conditions: Ebola virus entry assay, blue channel fluorescence
Active and inactive are the calls of the source.
// reported AC50 per item
reported endpoint: AC50

INSERT INTO measurements (chem_smiles, reported_endpoint, result) VALUES
  ('CCCCC[C@H](O)C=C[C@H]1[C@H](O)CC(=O)[C@H]1CC=CCCCC(=O)O', 'AC50', '8.91 µM (active)'),
  ('C=CCN1CC[C@]23CCCC[C@H]2[C@H]1Cc1ccc(O)cc13', 'AC50', '39.8 µM (active)');

###

Settings: Ebola virus entry assay, blue channel fluorescence
The source made the active and inactive calls.
Classes used: active, inactive

INSERT INTO assay_data (compound, classification) VALUES
  ('Oc1ccc(Cl)cc1Cc1cc(Cl)ccc1O', 'active'),
  ('C/C(=N/NC(=O)c1ccncc1)C(=O)O', 'inactive'),
  ('CN(C)CC[C@@H](c1ccc(Cl)cc1)c1ccccn1', 'inactive'),
  ('CC(=O)O[C@]1(C(C)=O)CC[C@H]2[C@@H]3C=C(Cl)C4=CC(=O)CC[C@]4(C)[C@H]3CC[C@@]21C', 'active'),
  ('C[C@@H](O)[C@H]1C(=O)N2C(C(=O)O)=C([C@H]3CCCO3)S[C@H]12', 'inactive'),
  ('Cc1c(F)cc2c(=O)c(C(=O)O)cn3c2c1CCC3C (stereo not drawn)', 'inactive'),
  ('C[C@H]1O[C@@H](O[C@H]2CC[C@@]3(C)[C@H](CC[C@@H]4[C@@H]3C[C@@H](O)[C@]3(C)[C@@H](C5=CC(=O)OC5)CC[C@]43O)C2)C[C@H](O)[C@@H]1O[C@H]1C[C@H](O)[C@H](O[C@H]2C[C@H](O)[C@H](O[C@@H]3O[C@H](CO)[C@@H](O)[C@H](O)[C@H]3O)[C@@H](C)O2)[C@@H](C)O1', 'active'),
  ('c1ccc(CC2=NCCN2)cc1', 'inactive'),
  ('COc1cc(O)c(C(=O)c2ccccc2)cc1S(=O)(=O)O', 'inactive'),
  ('CCOC(=O)c1ccc(C#Cc2ccc3c(c2)C(C)(C)CCS3)nc1', 'inactive'),
  ('CO[C@]1(NC(=O)CSC(F)F)C(=O)N2C(C(=O)O)=C(CSc3nnnn3CCO)CO[C@H]21', 'inactive'),
  ('CCCCCC(N)=O', 'inactive'),
  ('Clc1ccc(C(Cn2ccnc2)OCc2ccsc2Cl)c(Cl)c1 (stereo not drawn)', 'active'),
  ('Sc1ccccc1Cl', 'inactive'),
  ('CCS(=O)(=O)C(C)(C)S(=O)(=O)CC', 'inactive'),
  ('C[C@@H]1CN(CCCn2c3ccccc3c3ccccc32)C[C@H](C)N1', 'active'),
  ('CN1C(=O)[C@@H](NC(=O)c2cc3ccccc3[nH]2)N=C(c2ccccc2)c2ccccc21', 'active'),
  ('CCCCNc1cc(C(=O)O)cc(S(N)(=O)=O)c1Oc1ccccc1', 'inactive'),
  ('CCN1CCN(c2cc(-c3ccc(F)cc3)c3c(n2)CCCCCC3)CC1', 'active'),
  ('O=C(/C=C/c1ccc(O)c(O)c1)O[C@@H]1C[C@@](OC(=O)/C=C/c2ccc(O)c(O)c2)(C(=O)O)C[C@@H](O)[C@@H]1O', 'active'),
  ('CCN(CC)CCOC(=O)C(c1ccccc1)c1ccccc1', 'active'),
  ('CCOC(=O)c1ccc(NC(=O)CN2CCCCC2)cc1', 'inactive'),
  ('CCOC(C(=O)OCCN(C)C)(c1ccccc1)c1ccccc1', 'active'),
  ('CN(C)C(=O)Oc1cc(OC(=O)N(C)C)cc(C(O)CNC(C)(C)C)c1 (stereo not drawn)', 'inactive'),
  ('Nc1c2c(nc3ccccc13)CCCC2O (stereo not drawn)', 'inactive'),
  ('O=C(O)Cn1c(C(=O)Nc2nc(-c3ccccc3Cl)cs2)cc2ccccc21', 'inactive'),
  ('CNC[C@H](O)c1ccc(O)c(O)c1', 'inactive'),
  ('COc1ccc(CCC(C)=O)cc1', 'inactive'),
  ('CC1=C(CC(=O)O)c2cc(F)ccc2/C1=C\c1ccc(S(C)=O)cc1 (stereo not drawn)', 'inactive'),
  ('CN(C)[C@@H](CCOc1cccc2ccccc12)c1ccccc1', 'active'),
  ('CCCC(=O)O[C@]1(C(=O)CCl)[C@@H](C)C[C@H]2[C@@H]3CCC4=CC(=O)C=C[C@]4(C)[C@@]3(F)C(=O)C[C@@]21C', 'active'),
  ('CN1C(=O)CN=C(c2ccccc2)c2cc([N+](=O)[O-])ccc21', 'inactive'),
  ('CCCCN(CCCC)C(C(N)=O)c1ccc(OC)cc1 (stereo not drawn)', 'inactive');

###

Test system: CP305
Assay: qHTS profiling for inhibitors of Plasmodium falciparum proliferation (AID 504749); note: nearly all actives have a fitted effect of over 60% in size
Conditions: P. falciparum in erythrocytes, SYBR Green DNA, 72 h; series mostly up to 28.7 µM
Experimental: NIH National Institute of Allergy and Infectious Diseases [NIAID] NIH Chemical Genomics Center [NCGC] […] Because mature erythrocytes lack DNA, only Plasmodium-derived DNA is detected. NCGC Assay Protocol Summary: The SYBR Green viability assay was adapted from a method described previously (Plouffe et al., 2008). […] The following morning, fluorescence intensity at 485(14) nm excitation and 535(25) nm emission wavelengths was measured on an EnVision (Perkin Elmer) plate reader. […]
Records with an inconclusive call do not appear. Activity calls are given as the source filed them. Calls follow the shape of the dose curve; as a rule, active = well fitted inhibition curve with a large enough effect; inconclusive = small, poorly fitted or top-dose-only effect; inactive = flat fitted curve, though single readings scatter.
Classes used: yes (1) = active, no (0) = inactive

INSERT INTO results (compound, classification) VALUES
  ('CCOC(=O)NC(O)C(Cl)(Cl)Cl (configuration not stated)', 'no (0)'),
  ('C[C@]12CC[C@H]3[C@@H](CC=C4C[C@@H](O)CC[C@@]43C)[C@@H]1CC[C@@H]2O', 'no (0)'),
  ('CN(C)C(=S)SSC(=S)N(C)C', 'yes (1)'),
  ('OC(O)C(Cl)(Cl)Cl', 'no (0)'),
  ('ClC1=C(Cl)C2(Cl)C(CBr)CC1(Cl)C2(Cl)Cl (configuration not stated)', 'no (0)'),
  ('Cc1ccc(N=CN(C)C=Nc2ccc(C)cc2C)c(C)c1', 'no (0)'),
  ('CCN(Cc1ccc(Cl)nc1)/C(=C/[N+](=O)[O-])NC', 'no (0)'),
  ('CCC1(c2ccccc2)CCC(=O)NC1=O (configuration not stated)', 'no (0)'),
  ('NC(=O)OCCCc1ccccc1', 'no (0)'),
  ('CNC(=O)NC(O)C(Cl)(Cl)Cl (configuration not stated)', 'no (0)'),
  ('O=C(O)c1nn(Cc2ccc(Cl)cc2Cl)c2ccccc12', 'no (0)'),
  ('CN1C(=O)CN=C(c2ccccc2)c2cc([N+](=O)[O-])ccc21', 'no (0)');

###

Assay: qHTS of pediatric cancer cell lines to identify multiple opportunities for drug repurposing: Confirmatory screen for LAN-5 cells (AID 1347113); note: % is set by controls: 0 for no effect and ±100 for the full control effect; nearly all actives have a fitted effect of over 65% in size
Settings: LAN-5 neuroblastoma cell viability; series mostly up to 45.9 µM
Results filed as inconclusive are left out. Activity calls are given as the source filed them. Calls follow the shape of the dose curve; as a rule, active = well fitted cell-killing curve with a large enough effect; inconclusive = small, poorly fitted or top-dose-only effect, or effect the other way; inactive = no such curve, though single readings can be large or run the other way.
reported endpoint: outcome

INSERT INTO results (compound, result) VALUES
  ('CN1[C@@H]2CC[C@H]1CC(OC(=O)c1cc(Cl)cc(Cl)c1)C2 (stereo partly drawn)', 'inactive'),
  ('CC1Sc2c(C(=O)O)c(=O)c3cc(F)c(N4CCNCC4)cc3n21 (stereo not drawn)', 'inactive'),
  ('O=C(O)Cc1ccccc1', 'inactive');
